Reference for the values: patent US20150337051A1

koff reference
experimental system: T1, Biotinylated TEM1-Fc (murine, UniProt Q9HCU0 18-687 (human entry), limits assumed, biotinylated (sites not given))
T1 construct: Ligand captured on the streptavidin sensor surface in the Biacore analysis; also called rTEM-1-Fc; not shown: Fc portion of a murine gamma heavy chain
T1 sequence (looked up): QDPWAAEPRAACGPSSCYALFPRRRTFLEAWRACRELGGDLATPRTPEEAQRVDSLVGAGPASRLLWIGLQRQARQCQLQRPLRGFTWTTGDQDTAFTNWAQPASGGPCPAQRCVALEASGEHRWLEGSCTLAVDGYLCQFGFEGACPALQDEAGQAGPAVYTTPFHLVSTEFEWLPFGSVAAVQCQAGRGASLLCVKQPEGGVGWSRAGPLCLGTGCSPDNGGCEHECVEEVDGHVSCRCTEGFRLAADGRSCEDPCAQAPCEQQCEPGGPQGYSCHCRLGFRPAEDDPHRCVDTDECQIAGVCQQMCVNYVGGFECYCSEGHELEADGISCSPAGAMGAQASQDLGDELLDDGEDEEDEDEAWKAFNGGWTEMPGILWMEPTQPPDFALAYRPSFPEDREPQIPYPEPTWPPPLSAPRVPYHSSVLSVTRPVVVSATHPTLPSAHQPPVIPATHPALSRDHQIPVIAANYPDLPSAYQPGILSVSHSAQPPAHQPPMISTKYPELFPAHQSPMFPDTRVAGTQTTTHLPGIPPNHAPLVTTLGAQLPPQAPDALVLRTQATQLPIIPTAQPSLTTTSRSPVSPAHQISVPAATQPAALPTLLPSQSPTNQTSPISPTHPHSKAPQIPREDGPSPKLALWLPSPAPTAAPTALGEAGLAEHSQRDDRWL
assay comment: Biacore SPR, biotinylated TEM1-Fc on streptavidin surface, antibody as analyte, 1:1 model
Dear colleague, please return just the value in s⁻¹, with no unit written.

Worked examples, 4 binders total:
- binder: "Antibody 15D10 (antibody, V domains shown, Rat monoclonal antibody from hybridoma, IgG2a/kappa; also called 15D10.G4.C12; ATCC PTA-12543) VH: QVQLMESGPGLVQPSETLSLTCTVSGFSLTNYNIHWVRQPPGKGLEWMGLMWSGGNTDYNSALKSRLTISRDTSKNQVFLKMNSLQSEDTTTYYCARDSGYGEGRLDYWGQGVMVTVSS VL: DIVLTQAPLSVSVTPGESASISCRSSKSLLGSKGINFLYWYLQKPGKSPQLLIYRMSNLASGVPDRFSGSGSETDFILKISKVETEDVGVYYCAQFLEYPNSFGAGTKLELK"
  test result: 0.000105
- binder: "Antibody 7H12 (antibody, V domains shown, Rat monoclonal antibody from hybridoma, IgG1/kappa; also called 7H12.H5.E7; ATCC PTA-12545) VH: EVQLVESGGGLVQPGRSMILSCAASGFTFSNFDMAWVRQAPKMGLEWVATITYDGSRTNYRDSVKGRFTISRDSAKNTLYLQMDSLTSEDTATYYCARHGSSYYWFFDFWGPGTMVTVSS VL: ETVMTQSPTSMPTSIGERVTLNCKASQSVGINVDWYQQTPGQSPKLLIYTASNRHTGVPDRFAGSGSGRDFTLTISNVEAEDLVVYYCLQYGSLPFTFGAGTKLELK"
  test result: "3.01e-08"
- binder: "Antibody 7D3 (antibody, V domains shown, Rat monoclonal antibody from hybridoma, IgG2a/kappa; also called 7D3.F5.E8.D8; ATCC PTA-12538) VH: EVQLVESGGGLVQPKGSLKLSCAASGFDFKTYAMSWVRQAPGKGLDWIVTISTKGHNYATLYADSVKERFTISRDDSQSMVYLQMNNLKTEDTALYYCTVAGYNFDYWGQGVMVTVSS VL: DVVLTQTPSILSATIGQSVSISCRSSQSLLDSDGNTYLYWFLQRPGQSPQRLIYLVSNLGSGVPNRFSGSGSGTDFTLKISGVEAGDLGVYYCMQATHAPFTFGSGTKLEIK"
  test result: "1.34e-07"
- binder: "Antibody 16D2 (antibody, V domains shown, Rat monoclonal antibody from hybridoma, IgG2a/kappa; also called 16D2.H12.E7.G9; ATCC PTA-12544) VH: EVQLVESGGGLVQPGRSMKLSCSASGFIFRNYYMAWVRQAPTKGLEWVASTGTGGDFTYYRDSVKGRFTISRDTAESTLYLQMDSLKSEDTATYYCARAYGYFDYWGQGVKVTVSS VL: DIVLTQSPTTLSVTPGETVSLSCRASHSVGTNLHWYQQKTNESPRLLIKYVSQSNSGIPSRFSASGSGTDFTLNIKDVEFDDVSSYFCQQTQSWPLTFGSGTKLEIK"
  test result: "1.07e-08"

Let us move to another entry and its koff.
Consider Antibody 9A5 (antibody, V domains shown, Rat monoclonal antibody from hybridoma, IgG2a/kappa; also called 9A5.G12.B10.F8.F6; ATCC PTA-12542) VH: EVQLVESGGGLVQPGRSMKLSCAASGFTFRNYYMAWVRQAPTRGLEWVASTGSGGDFTYYRDSVKGRFTISRDTAENTLYLQMDSLRSEDTATYYCARAYGYFDYWGQGVRVTVSS VL: DIVLTQSPTTLSVTPGETVSLSCRASHSVGTNLHWYQQKTNESPRLLIKDASQSMSGIPSRFSASGSGTDFTLNIKNVEFDDVSSYFCQQTQSWPLTFGSGTKLEIK . Its measured koff is 1.84e-05
